Target: Acetylcholine receptor subunit alpha (Homo sapiens, UniProt P02708)
Sequence (P02708 whole entry): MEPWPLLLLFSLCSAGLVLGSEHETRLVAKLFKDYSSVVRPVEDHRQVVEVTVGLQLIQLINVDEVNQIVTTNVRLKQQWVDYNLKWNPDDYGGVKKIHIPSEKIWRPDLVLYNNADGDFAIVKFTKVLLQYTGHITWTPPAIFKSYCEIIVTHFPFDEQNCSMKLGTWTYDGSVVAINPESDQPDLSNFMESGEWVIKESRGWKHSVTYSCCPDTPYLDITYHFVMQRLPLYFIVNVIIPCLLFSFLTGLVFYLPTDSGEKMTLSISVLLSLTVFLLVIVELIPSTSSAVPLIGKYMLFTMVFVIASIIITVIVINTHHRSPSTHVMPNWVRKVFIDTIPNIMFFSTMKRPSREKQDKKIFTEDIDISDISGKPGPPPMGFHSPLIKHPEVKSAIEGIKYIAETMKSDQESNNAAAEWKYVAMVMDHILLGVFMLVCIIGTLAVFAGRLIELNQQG
Assay: Percent intrinsic activity against TE671 cells relative to 100 uM (S)-nicotine.
Format: functional, cell-based
Conditions: TE-671
As shown below, each of these compounds has a reported Intrinsic activity value.
Use % as the unit, but write only the number.

Q: Give reported Intrinsic activity value for CN1CCC[C@H]1COc1cccnc1
A: 40

Q: Note down Intrinsic activity recorded for CN1CCC[C@H]1c1cccnc1
A: 100

Q: Specify reported Intrinsic activity for the compound shown: Cc1cc([C@@H]2CCCN2C)on1
A: 38

Q: Retrieve Intrinsic activity measured for CN1CCC[C@H]1c1cc2ncccc2o1 and print it.
A: 18.9

---

Organism: Rattus norvegicus
Assay: Percent intrinsic activity relative to 100 uM (S)-nicotine.
Format: functional
compounds and their reported Intrinsic activity
Give the quantity in %, number only.

Substance Smiles	Numeric Result
CN1CCC[C@H]1c1cc2ncccc2o1	43
Cc1cc([C@@H]2CCCN2C)on1	100
CN1CCC[C@H]1COc1cccnc1	74

Turning to the following compound.
Q: Give the measured Intrinsic activity for CN1CCC[C@H]1c1cccnc1
A: 100

---

Assay: Percent intrinsic activity against IMR-32 cells relative to 100 uM (S)-nicotine.
Assay type: functional, Homo sapiens
Endpoint Label: Intrinsic activity (%)
Response body: numeric value in %, unit text excluded.

Q: // Input: CN1CCC[C@H]1c1cc2ncccc2o1 . Output its Intrinsic activity only.
A: 10.6

Q: State, in one line, measured Intrinsic activity of CN1CCC[C@H]1c1cccnc1 [NICOTINE]
A: 100

Q: Look up and report measured Intrinsic activity for this entry: c1cnc2cc([C@@H]3CCCN3)oc2c1
A: 9.2

---

Target: Acetylcholine receptor subunit alpha (Homo sapiens, UniProt P02708)
Assay: Tested for functional activity against alpha-1 neuronal nicotinic acetylcholine receptor(nAChR) expressed in TE671 cells using isotopic rubidium efflux assay.
Format: cell-based, TE-671
Endpoint Label: pEC50
API: returns pEC50 as number; meaning -log10 of concentration in mol/L.

Substance Smiles	System Under Test	pEC50
Cc1cc([C@@H]2CCCN2C)on1	Acetylcholine receptor subunit alpha (Homo sapiens, UniProt P02708)	3.39
CN1CCC[C@H]1c1cccnc1	Acetylcholine receptor subunit alpha (Homo sapiens, UniProt P02708)	3.74

Okay, now this molecule:
Q: Given the molecule CN1CCC[C@H]1COc1cccnc1 , write its reported pEC50.
A: 4.47

---

Molecular target: Neuronal acetylcholine receptor
Assay: Tested for neuronal nicotinic acetylcholine receptor (nAChR) binding in a whole rat brain preparation using […] as the radioligand.
Endpoint Label: pKi
Field pKi (float): negative decimal logarithm of the concentration in molar.

Look over these answered cases.
Substance Smiles	Numeric Result
CN1CCC[C@@H]1c1cc2ncccc2o1	7.01
c1cnc2cc([C@@H]3CCCN3)oc2c1	7.12
CN1CCC[C@H]1c1cc2ncccc2o1	8.56

Kindly consider the entry below.
Q: Assign pKi to the following record: c1cnc2cc([C@H]3CCCN3)oc2c1
A: 8.29

---

The compounds listed here are annotated with their EC50.
Experiment: Tested for functional activity against neuronal nicotinic acetylcholine receptor(nAChR) expressed in IMR-32 cells using isotopic rubidium efflux assay.
Format: cell-based
Conditions: Homo sapiens

Before answering, review these 3 worked examples.
Compound	EC50
CN1CCC[C@H]1c1cccnc1 [NICOTINE]	21 µM
CN1CCC[C@@H]1c1cc2ncccc2o1	> 1000 µM
CN1CCC[C@H]1c1cc2ncccc2o1	> 1000 µM

Q: Give the reported value of EC50 for this record: c1cnc2cc([C@H]3CCCN3)oc2c1
A: 41.5 µM

Q: Please give the documented EC50 of Cc1cc([C@@H]2CCCN2C)on1 [ABT-418]
A: 64 µM

Q: Please look at this compound and report its EC50: c1cnc2cc([C@@H]3CCCN3)oc2c1
A: > 1000 µM

Q: Note EC50 for the compound shown: CN1CCC[C@H]1COc1cccnc1
A: 24 µM

---

Experiment: Percent intrinsic activity against IMR-32 cells relative to 100 uM (S)-nicotine.
Format: functional, Homo sapiens
Endpoint Label: Intrinsic activity (%)
Express your answer in %, writing the number without its unit.

Substance Smiles	Numeric Result
CN1CCC[C@H]1COc1cccnc1	77.2
c1cnc2cc([C@H]3CCCN3)oc2c1	57.8
Cc1cc([C@@H]2CCCN2C)on1	85

Continue with the compound presented below.
Q: Supply measured Intrinsic activity of CN1CCC[C@@H]1c1cc2ncccc2o1 in your reply.
A: 15.2
